// data source = PubChem BioAssay

# maps each entry to its inhibition
experiment: growth suppression of yeast trafficking mutant, preliminary HTS, modulators of trafficking downstream of Golgi apparatus project, 1536-format plate, OD 615 nm (AID 637); conditions: yeast transport mutant growth, absorbance 615 nm, 18 h; stronger effect = higher value; further: test concentration not given here

>  <COMPOUND>
NC(=O)CSc1nnc(-c2cnccn2)n1-c1ccccc1

>  <QUANTITY UNIT>
%

>  <inhibition>
1.13

$$$$
>  <COMPOUND>
CCOC(=O)COc1ccc(S(=O)(=O)Nc2ccc3c(c2)OCO3)cc1

>  <QUANTITY UNIT>
%

>  <inhibition>
9.02

$$$$
>  <COMPOUND>
Cc1cc(C)cc(NC(=O)N2CCC(c3nc4ccccc4o3)CC2)c1

>  <QUANTITY UNIT>
%

>  <inhibition>
1.8

$$$$
>  <COMPOUND>
CC1(C)Cc2c(sc3ncnc(N)c23)CO1

>  <QUANTITY UNIT>
%

>  <inhibition>
1.48

$$$$
>  <COMPOUND>
CC1(C)Cc2cccc(OCC(=O)O)c2O1

>  <QUANTITY UNIT>
%

>  <inhibition>
-3.97

$$$$
>  <COMPOUND>
Cc1nnc(SCc2cc(=O)[nH]c(N3CCCCC3)n2)s1

>  <QUANTITY UNIT>
%

>  <inhibition>
-2.86

$$$$
>  <COMPOUND>
CCC(=O)N1CCc2cc(OC)c(OC)cc2C1COc1ccc(C(=O)OC)cc1 (stereo not given)

>  <QUANTITY UNIT>
%

>  <inhibition>
1.61

$$$$
>  <COMPOUND>
CCC(=O)Nc1c(C#N)c2nc3ccccc3nc2n1-c1ccccc1C

>  <QUANTITY UNIT>
%

>  <inhibition>
8.85

$$$$
>  <COMPOUND>
CC(Sc1nnnn1-c1ccccc1)C(=O)Nc1ccc(Cl)cn1 (stereo not given)

>  <QUANTITY UNIT>
%

>  <inhibition>
5.4

$$$$
>  <COMPOUND>
COc1ccccc1NC(=O)C(O)C(O)C(=O)Nc1ccccc1OC (stereo not given)

>  <QUANTITY UNIT>
%

>  <inhibition>
-2.83

$$$$
>  <COMPOUND>
COc1ccc2nc(NC(=O)C(NS(=O)(=O)c3cccs3)C(C)C)sc2c1 (stereo not given)

>  <QUANTITY UNIT>
%

>  <inhibition>
-5.64

$$$$
>  <COMPOUND>
O=C(CSc1nnnn1C1CCCC1)Nc1cccc(NC(=O)c2ccco2)c1

>  <QUANTITY UNIT>
%

>  <inhibition>
-2.17

$$$$
>  <COMPOUND>
Cc1ccc(S(=O)(=O)Nc2nc3ccccc3nc2NCc2ccco2)cc1

>  <QUANTITY UNIT>
%

>  <inhibition>
-6.51

$$$$
>  <COMPOUND>
O=C(NCc1cccs1)c1cc2c(s1)CCCC2

>  <QUANTITY UNIT>
%

>  <inhibition>
2.13

$$$$
>  <COMPOUND>
N#CC1=C(N)N(c2ccccc2)C2=C(C(=O)CCC2)C1c1cccs1 (stereo not given)

>  <QUANTITY UNIT>
%

>  <inhibition>
0.83

$$$$
>  <COMPOUND>
CCCCn1nc(C(=O)N2CCc3ccccc32)c2ccccc2c1=O

>  <QUANTITY UNIT>
%

>  <inhibition>
-10.6

$$$$
>  <COMPOUND>
c1ccc(CCNc2ccc3nncn3n2)cc1

>  <QUANTITY UNIT>
%

>  <inhibition>
0.98

$$$$
>  <COMPOUND>
CSc1nnc(-c2ccc(NC(=O)CCc3ccccc3)cc2)n1C

>  <QUANTITY UNIT>
%

>  <inhibition>
3.11

$$$$
>  <COMPOUND>
Cc1ccc(/C(O)=C2/C(=O)C(=O)N(Cc3ccco3)C2c2cccs2)cc1 (stereo not given)

>  <QUANTITY UNIT>
%

>  <inhibition>
-7.78

$$$$
>  <COMPOUND>
COCCCN1C(=O)C(O)=C(C(=O)c2ccco2)C1c1ccc(Br)cc1 (stereo not given)

>  <QUANTITY UNIT>
%

>  <inhibition>
0.81

$$$$
